target: human NAMPT (Homo sapiens, UniProt P43490); assay: Human recombinant enzyme assay (NMN fluorescence biochemical assay, activation of NAMPT)
Sequence (P43490 whole entry): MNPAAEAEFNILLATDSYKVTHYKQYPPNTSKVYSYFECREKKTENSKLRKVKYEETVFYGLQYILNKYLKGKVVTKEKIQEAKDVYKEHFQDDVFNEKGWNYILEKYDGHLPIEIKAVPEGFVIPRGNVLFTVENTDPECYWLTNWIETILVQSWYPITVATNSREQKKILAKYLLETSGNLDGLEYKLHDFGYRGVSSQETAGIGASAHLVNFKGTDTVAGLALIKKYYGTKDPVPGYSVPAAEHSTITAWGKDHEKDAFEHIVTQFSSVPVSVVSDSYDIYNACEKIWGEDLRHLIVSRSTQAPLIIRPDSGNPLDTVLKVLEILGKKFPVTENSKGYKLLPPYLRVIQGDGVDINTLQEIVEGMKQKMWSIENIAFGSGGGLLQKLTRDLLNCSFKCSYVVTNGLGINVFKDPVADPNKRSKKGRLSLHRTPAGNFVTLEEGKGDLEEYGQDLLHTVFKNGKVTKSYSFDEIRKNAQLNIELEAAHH
Response field label takes met when EC50 is strictly below 6 µM and not met in all other cases.

{"Compound": "CC(C)(O)CN1CCN(C(=O)C2CC3(CC(NC(=O)NCc4ccc(Cl)cc4)C3)C2)CC1 (centres unmarked)", "Group label": "met"}
{"Compound": "O=C(NCCCCC1CCN(C(=O)c2ccccc2)CC1)NCc1ccc(Cl)cc1", "Group label": "met"}
{"Compound": "CCc1cccc(C(=O)N2CC3(CC(NC(=O)NCc4ccc(OC)cc4)C3)C2)c1", "Group label": "not met"}
{"Compound": "O=C(NCc1ccc(Cl)cc1)NC1CC2(C1)CC(Oc1cccnc1)C2 (centres unmarked)", "Group label": "met"}
{"Compound": "COc1ccc(CNC(=O)NC2CC3(C2)CC(c2nc4ccccc4o2)C3)cc1 (centres unmarked)", "Group label": "not met"}
{"Compound": "COc1ccc(CNC(=O)NC2CC3(C2)CC(C(=O)NC(C)(C)c2ccccc2)C3)cc1 (centres unmarked)", "Group label": "not met"}
{"Compound": "COc1ccc(CNC(=O)NC2CC3(C2)CN(C(=O)c2cccc(O)c2)C3)cc1", "Group label": "not met"}
{"Compound": "Cc1cccc(C(=O)NCC2CC3(C2)CC(NC(=O)NCc2ccc(Cl)cc2)C3)n1 (centres unmarked)", "Group label": "met"}
{"Compound": "O=C(NCc1ccc(Cl)cc1)NC1CC2(C1)CC(NS(=O)(=O)c1ccccc1)C2 (centres unmarked)", "Group label": "met"}
{"Compound": "COC(=O)N1CCN(C(=O)C2CC3(CC(NC(=O)NCc4ccc(OC)cc4)C3)C2)CC1 (centres unmarked)", "Group label": "not met"}
{"Compound": "O=C(NCc1ccc(Cl)cc1)NC1CC2(CC(Cc3ncccn3)C2)C1 (centres unmarked)", "Group label": "met"}
{"Compound": "COc1ccc(CNC(=O)NC2CC3(C2)CN(C(=O)CCc2ccccc2Cl)C3)cc1", "Group label": "not met"}
{"Compound": "NC(=O)c1ccc(CNC(=O)NC2CC3(C2)CC(Nc2ccccn2)C3)cc1 (centres unmarked)", "Group label": "not met"}
{"Compound": "CC(C)(C(=O)N1CC2(CC(NC(=O)NCc3ccc(Cl)cc3)C2)C1)c1ccccc1", "Group label": "met"}
{"Compound": "CC(C)(C)OC(=O)N1CCC2(CC1)CC2CNC(=O)NCc1ccc(Cl)cc1 (centres unmarked)", "Group label": "not met"}
{"Compound": "COc1ccc(CNC(=O)NC2CC3(C2)CC(C(=O)N[C@H](C)c2ccccc2)C3)cc1 (some centres unmarked)", "Group label": "not met"}

---

target: human NAMPT (Homo sapiens, UniProt P43490); assay: Human recombinant enzyme assay (NMN fluorescence biochemical assay, activation of NAMPT); conditions: Table A; human recombinant NAMPT, NMN formation, 60 min

{"Molecule": "Cc1cccc(N(C)C(=O)CCCCCNC(=O)NCc2ccc(Cl)cc2)c1 [Compound 264]", "Unit": "µM", "AC1.4 Human": 1.0}
{"Molecule": "O=C(NCc1ccc(Cl)cc1)NC1CC2(C1)CC(NS(=O)(=O)Cc1ccccc1Cl)C2 (centres unmarked) [Compound 120]", "Unit": "µM", "AC1.4 Human": 0.5}
{"Molecule": "COc1ccc(CNC(=O)NC2CC3(C2)CN(C(=O)c2ccccc2C)C3)cc1 [Compound 148]", "Unit": "µM", "AC1.4 Human": 3.9}
{"Molecule": "Cc1ccc(CC2CC3(C2)CC(NC(=O)NCc2ccc(Cl)cc2)C3)cn1 (centres unmarked) [Compound 347]", "Unit": "µM", "AC1.4 Human": 2.2}
{"Molecule": "O=C(NCc1ccc(Cl)cc1)NC1CC2(C1)CC(N(Cc1ccccc1)Cc1ccccc1)C2 (centres unmarked) [Compound 119]", "Unit": "µM", "AC1.4 Human": 3.8}
{"Molecule": "COc1ccc(CNC(=O)NC2CC3(C2)CC(C(=O)Nc2ccccc2)C3)cc1 (centres unmarked) [Compound 86]", "Unit": "µM", "AC1.4 Human": 4.7}
{"Molecule": "COC(=O)c1cccc(C(=O)N2CC3(CC(NC(=O)NCc4ccc(OC)cc4)C3)C2)c1 [Compound 181]", "Unit": "µM", "AC1.4 Human": 3.0}
{"Molecule": "O=C(NCCCCC1CCN(C(=O)Cc2ccncc2)CC1)NCc1ccc(Cl)cc1 [Compound 295]", "Unit": "µM", "AC1.4 Human": 1.2}
